Hey, just so you know, these numbers are from the supplement of paper PMC12764529.

Listing of entries alongside the reported folding stability dG unfold.
# experimentNotes: folding stability dG unfold (combined trypsin and chymotrypsin); higher = more stable
Enter your answer as a number in kcal/mol; do not include the unit.

[
  {
    "sequenceContent": "KKTYTAEEIRKLAEKLGLEVPEGDLEIKVVFKDNKKTYTIKPGEEYTLEEILEKLKKEKPNIVKIEIKKKPS [r1_135_TrROS_Hall]",
    "folding stability dG unfold (kcal/mol)": 1.99
  },
  {
    "sequenceContent": "SAGGSAGGSIVFRSPEQAKEWLDNFPPGNEVNIHVQGPDTGQPQEFEIKIPPPKPEYDPDGKPSAGGSAGGS [r12_393_TrROS]",
    "folding stability dG unfold (kcal/mol)": -0.169
  },
  {
    "sequenceContent": "SAGGSAGGSAMITSDDLEKLLKKLGIDPKKLGPEKLAKIFKELYPDAIITADPEGKAYIYPSAGGSAGGSAG [r3_375_TrMRF]",
    "folding stability dG unfold (kcal/mol)": 1.2
  },
  {
    "sequenceContent": "SAGGSAGGSAGMETRLIAVLEDGEAVFEDGGTLITVPADEDVADIPDGGGLGTIYIPKDGSAGGSAGGSAGG [r11_647_TrMRF]",
    "folding stability dG unfold (kcal/mol)": -0.0625
  },
  {
    "sequenceContent": "SAGGIVVKVADGSYVRIVVYDPNNPVPRIETFPGGGVDDVIAAIAASPSFPNTVVYVERFDDGKPYPASAGG [r13_914_TrMRF]",
    "folding stability dG unfold (kcal/mol)": 0.747
  }
]

Task: Assign folding stability dG unfold to the following record: SAGGSAGGSAGGSDGALIFIIHIKMEMELEPNPDGPPKWDMDWDIEPTWIQIDDPEDFKSAGGSAGGSAGGS [r4_450_TrROS]
Result: 2.19

Task: Assign folding stability dG unfold to the following record: SAGGSAGGSAETVTITLTVPPGASVEEILAALKAKYPDITSVSVERREDGYLKVTVTVRLDSAGGSAGGSAG [r3_371_TrROS_Hall]
Result: 4.46

Task: Assign folding stability dG unfold to the following record: SVPYGVTDVTFEPEKNTATVTAPRPDPSAPVAVGDKKGESVSVTSEVDTAAGTLTVTVPTTAPGNVTVDVPS [r1_138_JUSTAS]
Result: 0.133

Task: Assign folding stability dG unfold to the following record: SAGSRTVTLTFYRPLSRPPGGAPVVREAERTVTLNLPDDTLSEEEIEALAEELRAEHPDVEVEITIDDSAGG [r19_369_JUSTAS]
Result: 1.18

Task: Assign folding stability dG unfold to the following record: GEERTFSLWVKTKSPQEARQLQEKIKDILRGPGYEVKIDDVEVSPNGWMKVNITMRPGMPQDRLRDALRKIS [r1_485_TrROS]
Result: 4.99

Task: Assign folding stability dG unfold to the following record: SAEVETVTLELELPEDGYRVTITVTYNKETGEVTVEIRIINPNGEEKTITIKVKSLEEALKKLEFKLLPSAG [r14_749_TrROS_Hall]
Result: 2.36

Task: Assign folding stability dG unfold to the following record: SAGGSAGGSAGKPKTKTITLTLLVYDEETGEFYRIEARIEINEDGSITIEEKIEKLPLKPSAGGSAGGSAGG [r11_941_TrROS_Hall]
Result: 3.91

Task: Assign folding stability dG unfold to the following record: SAGGSASSMLSPSLYVTTITVKKPGGMTVTETVPGTPEEVERLIEELKKKGLEVEKVDVVPVSELVSAGGSA [r15_640_JUSTAS]
Result: 1.66
